# protocol summary: chemical genetic growth profiling, strain panel (AID 1159580);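 note: tested at 20 µM; growth read once vehicle control cultures reached saturation at 30 °C; 1 = growth at the plate median or of vehicle wells; lower values mean less growth of the strain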
# assay context: S. cerevisiae deletion strains, growth OD, locus YDR335W, strain msn5, active compounds read low
In all, about 5,500 compounds went through this assay and about 2,000 (36%) were called active. Another 18% or so got no clear call; they are omitted. Some of the results follow.
Assignment: determine reported normalized growth for the given compounds.
Answers are plain numbers.

Worked set:
C#C[C@]1(O)CCC2C3CCC4=C(CCC(=O)C4)C3CC[C@@]21C (stereo partly drawn) : 0.97
CO[C@@]12[C@@H]3NC3CN1C1=C(C(=O)C(N)=C(C)C1=O)[C@@H]2COC(N)=O (stereo partly drawn) : 0.963
O=C(Nc1ccc(C(=O)O)c(O)c1)c1ccccc1 : 0.972
CCC(C)C(NC)C(=O)O (stereo not drawn) : 1.01
NC(Cc1c[nH]c2ccccc12)C(=O)O (stereo not drawn) : 1.03

Consider the following items and state reported normalized growth for each.
1. COc1ccc2c(c1)c(CC(=O)O)c(C)n2C(=O)c1ccc(Cl)cc1
2. C[C@]12CCC(=O)C=C1CCC1C2[C@@H](O)C[C@@]2(C)C1CC[C@]2(O)C(=O)CO (stereo partly drawn)
3. O=C1C(O)=C(O)C(=O)C(O)=C1O

Found:
1: 0.991; 2: 0.987; 3: 1.01
